The values you see were collected from PubChem BioAssay (NCI).

Test system: TK-10 renal
Assay protocol: NCI-60 one-dose screen, 48 h (100 = growth as untreated, 0 = no growth, -100 = all killed)
Experimental parameters: 10 µM
The panel holds about 83,000 compounds, 20% with a hit somewhere; the sample as a whole holds those more often. Calls of active or inactive are those of the source. Rule for the calls: active = growth percent below 10; inactive = the rest.
Recorded growth by entry

Example cases with answers are listed next.
COc1ccc(/C=C/C(=O)c2nc3ccccc3n2Cc2ccc(Br)cc2)cc1	110% (inactive)
C=CCN=C([Se])NC(=O)c1ccc2c(c1)OCO2	120% (inactive)
CCOC(=O)C1=C(Nc2ccccc2)C(=O)OC12C(=O)Nc1ccccc12 (stereo unspecified)	137% (inactive)

Reported TK-10 renal growth for item CC(C)N=C([Se])NC(=O)c1ccccc1 was -71.2% (active)

Reported TK-10 renal growth for item CCC[Se]C(=O)c1ccc(C(=O)[Se]CCC)s1 was -79.8% (active)

Reported TK-10 renal growth for item O=C([Se]C1C=CCCC1)c1ccc(C(=O)[Se]C2C=CCCC2)s1 (stereo unspecified) was -80.9% (active)

* * *

Test system: MDA-MB-468 breast
Assay protocol: NCI-60 one-dose screen, 48 h
Experimental parameters: 10 µM unless noted
Compounds without any hit were thinned out: in the full panel of roughly 83,000, 20% have a hit. The source made the active and inactive calls. Rule for the calls: active = growth percent below 10; inactive = the rest.
Tick one outcome: active, inactive

CC(=O)Nc1nc2c(s1)CC[C@@]1(C)C2=CC[C@H]2[C@@H]3CC[C@H](O)[C@@]3(C)CC[C@@H]21	inactive
COC(=O)CCC1=C(C)c2cc3[n-]c(cc4nc(cc5[n-]c(cc1n2)c(CCC(=O)OC)c5C)C=C4C)cc3C.[Cd+2]	inactive
CC(=O)/C=C/c1ccc2c(c1)OCO2	inactive
C[C@@H]1C/C=C\C(=O)O[C@H](/C=C/C#C/C=C/C(C)(C)[C@@H](O)c2cccc(O)c2Br)[C@@H](C)/C=C/[C@H](C)C[C@H](OC(N)=O)C1	inactive

How did this test come out for O=C(NCCN1CC1)C(=O)NCCN1CC1 ?
inactive

How did this test come out for COc1cc(C=Nc2cccc(Br)c2)ccc1N(CCCl)CCCl ?
active

* * *

Test system: OVCAR-8 ovarian
Assay protocol: NCI-60 one-dose screen, 48 h
Experimental parameters: 10 µM
About 83,000 compounds went through this panel and 20% of them were active in at least one assay; those are over-represented in the sample as a whole. Calls of active or inactive are those of the source. Rule for the calls: active = growth percent below 10; inactive = the rest.
Tick one outcome: yes (active), no (inactive)

COCCOCCOCCOc1ccc(-n2cc(CCCN(CCNc3ccnc4cc(Cl)ccc34)C(=O)CCC(=O)O[C@@H]3O[C@@H]4OC5(C)CC[C@H]6[C@H](C)CC[C@@H]([C@H]3C)[C@@]46OO5)nn2)cc1	no
COC(=O)C[C@](O)(CCCC(C)C)C(=O)O[C@H]1C(OC)=C[C@@]23CCCN2CCc2cc4c(cc2[C@@H]13)OCO4	yes
CC12CCC3(CCC(=O)NCCCNc4ccnc5cc(Cl)ccc45)[C@@](C)(OO[C@]3(C)O1)O2	yes
O=C(/C=C/c1ccccc1)c1nc2ccccc2n1Cc1ccc(Br)cc1	yes

How did this test come out for C[C@H]1[C@H](OC(=O)CCC(=O)N(CCCc2cn(-c3ccc(C#N)cc3)nn2)CCNc2ccnc3cc(Cl)ccc23)O[C@@H]2OC3(C)CC[C@H]4[C@H](C)CC[C@@H]1[C@@]24OO3 ?
no

How did this test come out for O=C([Se]C1C=CCCC1)c1ccc(C(=O)[Se]C2C=CCCC2)s1 (configuration not stated) ?
yes

How did this test come out for Cc1ccc2[nH]c(=S)n(-c3ccc(F)cc3)c(=O)c2c1 ?
no

* * *

Tested on: HL-60(TB) leukemia
Assay protocol: NCI-60 one-dose screen, 48 h (100 = growth as untreated, 0 = no growth, -100 = all killed)
Experimental parameters: 10 µM unless noted
This is part of a sample that, as a whole, favours compounds with a hit. Of some 83,000 tested, about 20% had one in any assay.
Classification field: class 1 = growth at or over 20%; class 0 = growth under 20%.

A selection of reference data follows.
N#Cc1c(-c2ccc(Cl)cc2)nc2n[nH]c(-c3ccc(Cl)cc3)c2c1-c1ccc(C(F)(F)F)cc1	class 0
COc1ccc(NC(=O)Cn2c(/C=C/c3ccc([N+](=O)[O-])cc3)nc3ccccc3c2=O)cc1	class 1
CCOC(=O)C(Cc1ccccc1)N1C(=O)/C(=C/N2N=C(c3ccc(OC)cc3)CC2c2ccc3ccccc3c2)SC1=S (stereo not drawn)	class 0
O=C1Nc2cc(Cl)ccc2/C1=C/c1cccc(OCc2ccc(Br)cc2F)c1	class 0
c1ccc(CSc2nnc(-c3ccc4nc(-c5ccccc5)[nH]c4c3)o2)cc1	class 1

Is growth for COc1ccc2nc(Nc3cccc(NC(=O)c4ccc(CN5CCCN(C)CC5)c(C(F)(F)F)c4)c3)ccc2c1 at or above 20%?
class 0

Is growth for CC[C@]12C=CCN3CC[C@@]4(c5ccc(OC)cc5N(C)[C@H]4[C@@](O)(C(=O)OC)[C@@H]1OC(=O)CCC[P+](c1ccc(F)cc1)(c1ccc(F)cc1)c1ccc(F)cc1)[C@@H]32 at or above 20%?
class 0

* * *

System: OVCAR-3 ovarian
Assay protocol: NCI-60 one-dose screen, 48 h
Experimental parameters: 10 µM
This is part of a sample that, as a whole, favours compounds with a hit. Of some 83,000 tested, about 20% had one in any assay. Active and inactive are the calls of the source. The calls were made as follows: active = growth percent below 10; inactive = the rest.
Tick one outcome: active, inactive

A selection of reference data follows.
CCOP(=O)(CC(F)(F)C(F)(F)F)OCC	active
CC(=O)Oc1ccccc1C(=O)NC([Se])=NC1CCCCC1	active
CC[C@]12C=CCN3CC[C@@]4(c5ccc(OC)cc5N(C)[C@H]4[C@@](O)(C(=O)OC)[C@@H]1OC(=O)CCC[P+](c1ccc(C)cc1)(c1ccc(C)cc1)c1ccc(C)cc1)[C@@H]32	active
CC1=C(C=O)C2=C(C)C3(CC3)[C@@](C)(O)C(=O)C2=C1	active

How did this test come out for O=C(/C=C/c1ccco1)c1nc2ccccc2n1Cc1ccc(Br)cc1 ?
inactive

How did this test come out for O=C(NC([Se])=NC1CCCCC1)c1ccccc1 ?
inactive

How did this test come out for Cc1c2oc3c(C)ccc(C(=O)N[C@@H]4C(=O)N[C@H](C(C)C)C(=O)N5CCC[C@H]5C(=O)N(C)CC(=O)N(C)[C@@H](C(C)C)C(=O)OC4C)c3nc-2c(C(=O)N[C@@H]2C(=O)N[C@H](C(C)C)C(=O)N3CC(=O)C[C@H]3C(=O)N(C)CC(=O)N(C)[C@@H](C(C)C)C(=O)OC2C)c(N)c1=O (some centres not stated) ?
active

* * *

Test system: EKVX NSCLC
Assay protocol: NCI-60 one-dose screen, 48 h
Experimental parameters: 10 µM
The panel holds about 83,000 compounds, 20% with a hit somewhere; the sample as a whole holds those more often. Calls of active or inactive are those of the source. Rule for the calls: active = growth percent below 10; inactive = the rest.
Tick one outcome: active, inactive

A selection of reference data follows.
CC1=C(CCC=NNC(N)=O)C2=C(C)C3(CC3)[C@@](C)(O)C(=O)C2=C1	active
O=C(/C=C/c1ccco1)c1nc2ccccc2n1Cc1ccc(Br)cc1	inactive
O=C(/C=C/c1ccc(Cl)cc1Cl)c1nc2ccccc2n1Cc1ccc(F)cc1	inactive
O=C(/C=C/c1ccc(F)cc1)c1nc2ccccc2n1Cc1ccc(F)cc1	inactive
CC12OOC(C)(OO1)C2CCC(=O)OCCNc1ccnc2cc(Cl)ccc12 (configuration not stated)	active
O=C(NC([Se])=NC1CCCCC1)c1ccccc1	inactive

How did this test come out for COC(=O)C[C@](O)(CCC(C)C)C(=O)O[C@H]1C(OC)=C[C@@]23CCCN2CCc2cc4c(cc2[C@@H]13)OCO4 ?
active

How did this test come out for CCOP(=O)(OCC)C(NC(C)=O)C(=O)SCCN (configuration not stated) ?
inactive

How did this test come out for C[C@H]1[C@@H](Oc2ccc(-c3cn(-c4ccnc5cc(Cl)ccc45)nn3)cc2)O[C@@H]2OC3(C)CC[C@H]4[C@H](C)CC[C@@H]1[C@@]24OO3 ?
inactive

How did this test come out for COC(=O)CCn1c(-c2ccc(-n3cc(-c4ccc(O[C@H]5O[C@@H]6OC7(C)CC[C@H]8[C@H](C)CC[C@@H]([C@H]5C)[C@@]68OO7)cc4)nn3)cc2)nc2ccccc21 ?
inactive

How did this test come out for CC(=O)Oc1ccccc1C(=O)NC([Se])=NC1CCCCC1 ?
active

How did this test come out for O=C(/C=C/c1ccccc1)c1nc2ccccc2n1Cc1ccc(F)cc1 ?
active

How did this test come out for Cc1c2oc3c(C)ccc(C(=O)N[C@@H]4C(=O)N[C@H](C(C)C)C(=O)N5CCC[C@H]5C(=O)N(C)CC(=O)N(C)[C@@H](C(C)C)C(=O)OC4C)c3nc-2c(C(=O)N[C@@H]2C(=O)N[C@H](C(C)C)C(=O)N3CC(=O)C[C@H]3C(=O)N(C)CC(=O)N(C)[C@@H](C(C)C)C(=O)OC2C)c(N)c1=O (some centres not stated) ?
active

How did this test come out for CC[C@]12C=CCN3CC[C@@]4(c5ccc(OC)cc5N(C)[C@H]4[C@@](O)(C(=O)OC)[C@@H]1OC(=O)CCCC[P+](c1ccc(C)cc1)(c1ccc(C)cc1)c1ccc(C)cc1)[C@@H]32 ?
active
